Molecular target: strychnineinsensitive glycine recognition site (NMDA receptor-ion channel complex) (Rattus norvegicus)
Construct: Synaptic plasma membranes (SPM) were prepared from rat forebrain; from tissue; host or cells: rat forebrain synaptic plasma membranes
Test: Glycine binding assay, [3H]glycine, synaptic plasma membranes
Conditions: 10 nM [3H]glycine, pH 7.4, rat forebrain SPM; read-out: Ki apparent, Gly
Method: Synaptic plasma membranes (SPM) were prepared from rat forebrain and stored as previously described [J. B. Monahan and J. Michel, J. Neurochem, 48, 1699-1708 (1987)]. Frozen membranes were thawed and diluted 1:20 with 0.04% triton X-100 in 50 mM tris/acetate (pH 7.4). Following incubation at 37° C. for 30 min., the SPM were collected by centrifugation at 95,000 X g for 15 min. The pellet was resuspended in 50 mM tris/acetate (pH 7.4, triton-free) and hand-homogenized five times. […]
Observed Property: Ki

Look over these answered cases.
CCOC(=O)Cc1c(C=O)[nH]c2cc(Cl)ccc12 [compound 51, ethyl 6-chloro-2-formyl-3-indole acetate] = > 30 µM
O=C(O)c1cc2cc(Cl)ccc2[nH]1 = > 100 µM
O=C(O)CCc1c(C(=O)O)[nH]c2ccccc12 = > 100 µM

**Query** In one line, give reported Ki of the entry `CN(C)C(=O)Cc1c(C(=O)O)[nH]c2cc(Cl)ccc12` .
**Result** > 30 µM

**Query** Give the value of Ki reported for the following: CCOC(=O)Cc1c(C(=O)O)[nH]c2cc(Cl)ccc12 [compound 31, ethyl 2-carboxy-6-chloro-3-indoleacetate]
**Result** 0.47 µM

**Query** Entry `O=C(O)Cc1c(CO)[nH]c2cc(Cl)ccc12` needs its Ki filled in; supply it.
**Result** > 30 µM

**Query** Return reported Ki. Input molecule: CCOC(=O)c1[nH]c2cc(Cl)ccc2c1CC(N)=O [compound 55, 2-carboethoxy-6-chloro-3-indoleacetamide]
**Result** > 30 µM

====

Catalogue of Ki values
Target: strychnineinsensitive glycine recognition site (NMDA receptor-ion channel complex) (Rattus norvegicus, UniProt P35439)
Construct: Synaptic plasma membranes (SPM) were prepared from rat forebrain; from tissue; host or cells: rat forebrain synaptic plasma membranes
Assay: Glycine binding assay, [3H]glycine, synaptic plasma membranes
Settings: 10 nM [3H]glycine, pH 7.4, rat forebrain SPM; read-out: Ki apparent, Gly

# annotated cases, reported Ki shown
O=C(O)c1[nH]c2ccccc2c1CO [Compound No. 12, 3-hydroxymethylindole-2-carboxylic acid] = > 100 µM
CCCOC(=O)Cc1c(C(=O)O)[nH]c2cc(Cl)ccc12 [compound 42] = 7 µM
O=C(O)c1cc2c(C(=O)O)cccc2[nH]1 [compound 26, 4-carboxyindole-2-carboxylic acid] = > 20 µM
CCOC(=O)Cc1c(C(=O)OCC)[nH]c2cc(Cl)ccc12 [compound 22] = > 100 µM
CCC(C(=O)O)c1c(C(=O)O)[nH]c2ccccc12 (stereo not drawn) [compound 10, 2-(2-carboxy-3-indole)butanoic acid] = > 100 µM

**Query** Tell me its Ki given O=C(O)Cc1c(C(=O)O)[nH]c2cc(Cl)ccc12 [Compound No. 6, 2-carboxy-6-chloro-3-indoleacetic acid] as the entry.
**Result** 1.3 µM

**Query** Consider the compound CN(C)CCCNC(=O)Cc1c(C(=O)O)[nH]c2cc(Cl)ccc12 [compound 40] and give its recorded Ki.
**Result** > 30 µM

Recorded values, source patent US5229413A.
